# System: DU-145 prostate
# Assay Procedure: NCI-60 one-dose screen, 48 h (100 = growth as untreated, 0 = no growth, -100 = all killed)
# Run Conditions: 10 µM unless noted
This is part of a sample that, as a whole, favours compounds with a hit. Of some 83,000 tested, about 20% had one in any assay.
Each entry belongs to exactly one class, chosen by where its growth falls: interval 1 = under 80%, interval 2 = from 80% up to 90%, interval 3 = 90% and over

Before answering, review these 2 worked examples.
{"Molecule": "COC(=O)c1ccc2[nH]c(O)c(C(=Nc3ccc(N(C)C(=O)CN4CCN(C)CC4)cc3)c3ccc4c(c3)OCO4)c2c1", "Assay Target": "DU-145 prostate", "Class Assignment": "interval 1"}
{"Molecule": "O=C(Cc1ccccc1[N+](=O)[O-])c1ccc2c(c1)OCO2", "Assay Target": "DU-145 prostate", "Class Assignment": "interval 3"}

Asked: Category lookup for the molecule CCCCCCCCc1ccc(OCCOCC[N+](C)(C)CC)cc1 (tested in a mixture with another compound)
Given back: interval 1

Asked: Consider COc1ccc(Cn2cc3c(c2-c2ccccc2)CCc2cnoc2-3)cc1N . To which growth class does it belong?
Given back: interval 1

Asked: Which category fits this record: COc1cc(CCNc2cnc3cc(N)cc(N)c3n2)cc(OC)c1
Given back: interval 3

---

# Test system: M14 melanoma
# Assay Procedure: NCI-60 one-dose screen, 48 h (100 = growth as untreated, 0 = no growth, -100 = all killed)
# Run Conditions: 10 µM unless noted
About 83,000 compounds went through this panel and 20% of them were active in at least one assay; those are over-represented in the sample as a whole. The source made the active and inactive calls. The calls were made as follows: active = growth percent below 10; inactive = the rest.
Endpoint: growth

{"Molecule": "O=C(/C=C/c1cccc(O)c1)c1cccc(-n2cc(-c3ccc(Cl)cc3)[nH]c2=O)c1", "Assay Target": "M14 melanoma", "Endpoint": "growth", "Recorded Result": "-13% (active)"}
{"Molecule": "COc1cc(-c2nc3c(c(C)nc4c3nnn4-c3ccccc3)c(=O)o2)cc(OC)c1OC", "Assay Target": "M14 melanoma", "Endpoint": "growth", "Recorded Result": "98.6% (inactive)"}
{"Molecule": "Nc1nc2c(c3cnccc13)C(c1cccc(Br)c1)Cc1cnccc1-2 (stereo unspecified)", "Assay Target": "M14 melanoma", "Endpoint": "growth", "Recorded Result": "-12.7% (active)"}

Asked: Reported growth, molecule CC1=C[C@@H]2c3c(c(O)c(O)c4oc5cc(O)cc(O)c5c(=O)c34)[C@@H](c3cc(O)c(O)c4oc5cc(O)cc(O)c5c(=O)c34)[C@@H]2C(C)(C)C1 : ____
Given back: -47% (active)

Asked: I'd like to know its growth. The molecule in question is COc1ccc(CN2C(=O)/C(=C\C(=O)c3ccc(OCCN4CCCCC4)cc3)c3ccccc32)cc1
Given back: 72.1% (inactive)

Asked: For the molecule shown here, Cc1nc2ccccc2c(=O)n1-c1cccc(OCc2cn(-c3cccc(O)c3)nn2)c1 , give the reported growth.
Given back: 94.4% (inactive)

Asked: Param item = CC(C)(C)c1ccc(OCCOC(=O)CBr)cc1 ; retrieve measured growth.
Given back: 95.8% (inactive)

Asked: Quick one: growth of CCCCCSc1ccc2nc(NC(=O)OCC)sc2c1 ?
Given back: 11.9% (inactive)

Asked: Please report the recorded growth for COc1ccc(-c2nc(SCC(C)C)nc(Nc3ccc(C)cc3)c2C#N)cc1 .
Given back: 88.8% (inactive)

Asked: # lookup: growth of O=C(Nc1ccc(-n2cc(-c3ccncc3)c(-c3ccc(Cl)c(O)c3)n2)cc1)c1ccc(Cl)c(Cl)c1
Given back: -65.8% (active)

Asked: What value of measured growth is listed for COc1ccc(Oc2[nH]n(C3=Nc4ccccc4Sc4ccccc43)c(=O)c2C#N)cc1 ?
Given back: 104% (inactive)

Asked: For OCCN1CCCN(CCCN2c3ccccc3Sc3ccc(C(F)(F)F)cc32)CC1 , what is its reported growth?
Given back: 7.54% (active)

Asked: What growth value was documented for this molecule, NNC(=S)N1N=C(c2cc3ccccc3o2)CC1c1c[nH]c2ccccc12 (stereo unspecified) ?
Given back: 52.1% (inactive)

---

Listing: growth of selected molecules
# System: SK-MEL-28 melanoma
# Assay Procedure: NCI-60 one-dose screen, 48 h (100 = growth as untreated, 0 = no growth, -100 = all killed)
# Run Conditions: 10 µM unless noted
This is part of a sample that, as a whole, favours compounds with a hit. Of some 83,000 tested, about 20% had one in any assay.
Give the quantity in %, number only.

{"Molecule": "O=c1c2c(c3ccccc3n1-c1ccccc1)NC(=S)NC2c1ccccc1 (stereo unspecified)", "Endpoint": "growth", "Recorded Result": 116}

Asked: Field request: growth | item: Cc1cc2c(-c3nc4ccccc4[nH]3)c(O)c(O)cc2c(O)c1-c1c(C)cc2c(-c3nc4ccccc4[nH]3)c(O)c(O)cc2c1O
Given back: 19.8

Asked: Value lookup for growth; key = CCN(CC)CCNc1ncnc2c1cnn2-c1ccc(Cl)cc1
Given back: -40.4

Asked: # get_value(readout='growth', item= CC([C@H]1CC=C2C3CCC4=C[C@@H](N(C)C)CC[C@]4(C)C3CC[C@@]21C)N(C)C (stereo partly specified) )
Given back: -33.6

Asked: // growth lookup, key: CC(=O)N(N=O)c1ccc([N+](=O)[O-])cc1Cl
Given back: 68.5

Asked: Entry COc1cc2cc3cc4cc(OC)c(OC)cc4c(C)[n+]3cc2cc1OC (tested in a mixture with another compound) : reported growth = ?
Given back: 116

Asked: // lookup growth for C=C(NC(=O)[C@H](C(C)C)N(C)c1cccc2[nH]ccc12)C(=O)OC
Given back: 104

Asked: For the molecule COc1ccc2c(N)ncc(C#Cc3cc(C(=O)Nc4ccc(CN5CCN(C)CC5)c(C(F)(F)F)c4)cnc3C)c2c1 , what growth is on record?
Given back: -80.2

---

# Test system: 786-0 renal
# Assay Procedure: NCI-60 one-dose screen, 48 h
# Run Conditions: 10 µM unless noted
The panel holds about 83,000 compounds, 20% with a hit somewhere; the sample as a whole holds those more often. Calls of active or inactive are those of the source. The calls were made as follows: active = growth percent below 10; inactive = the rest.
One label from this list, please: class 1 = active, class 0 = inactive

{"Compound": "COC(=O)[C@H](Cc1cn(C)cn1)NC(=O)[C@H](CC(=O)OCc1ccccc1)NC(=O)Nc1cc(C(F)(F)F)cc(C(F)(F)F)c1", "Class Assignment": "class 1"}
{"Compound": "O=C(N/N=C/c1ccccc1Cl)c1cccc2ccccc12", "Class Assignment": "class 0"}

# evaluate next
Asked: Outcome logged for CC(C)CSc1nc(-c2ccc(F)cc2)c(C#N)c(N2CCCCC2)n1 in this assay:
Given back: class 0

---

# Tested on: NCI-H460 lung
# Assay Procedure: NCI-60 one-dose screen, 48 h (100 = growth as untreated, 0 = no growth, -100 = all killed)
# Run Conditions: 10 µM unless noted
About 83,000 compounds went through this panel and 20% of them were active in at least one assay; those are over-represented in the sample as a whole.
// bucketize growth: lower range: < 10%; middle range: ≥ 10% and < 60%; upper range: ≥ 60%

Answered cases to consult:
{"Molecule": "CC(=O)Nc1nc(C)c(C(=O)NNC(=O)Nc2ccccc2)s1", "Class Assignment": "upper range"}
{"Molecule": "COC(=O)/C(Br)=C/c1c[nH]c2ccc(Br)cc12", "Class Assignment": "upper range"}
{"Molecule": "C/C(=N\\Nc1cccc(Cl)n1)c1ccccn1", "Class Assignment": "lower range"}
{"Molecule": "COC(=O)c1ccc2[nH]c(O)c(C(=Nc3ccc(N(C)C(=O)CN4CCN(C)CC4)cc3)c3ccc(C)cc3)c2c1", "Class Assignment": "lower range"}

Asked: Could you tell me which band CC(=O)OC1CC2C3CCC4C[C@@H](NC(=O)C=C(C)C)CC[C@]4(C)C3CC[C@]2(C)[C@H]1C(C)N(C)C (some centres not stated) belongs to?
Given back: lower range

Asked: Pick a category. Item: CCCCS(=O)(=O)c1cc(Nc2ccc(O)c3c2C(=O)c2ccccc2C3=O)ccc1C
Given back: middle range

Asked: Which class holds COc1ccc(-c2cc(C#N)c(NNC(C)=O)[nH]2)cc1 ?
Given back: upper range

Asked: The entry to classify is COc1ccc(C(=O)N2N=C(c3ccc(Br)cc3)CC2c2cn(-c3ccccc3)nc2-c2ccccc2)cc1 (configuration not stated) ; which class holds it?
Given back: middle range

Asked: Class? Entry: COC(=O)c1ccc(C(=Nc2ccc(N(C)C(=O)CN3CCN(C)CC3)cc2)c2c(O)[nH]c3ccc(C(=O)OC)cc23)cc1
Given back: middle range

Asked: Classify this molecule: Cc1nc(NC(=O)NC2CCCCC2)sc1C(=O)NN
Given back: upper range

Asked: Any idea which band Nc1ncn([C@@H]2O[C@H](CO)[C@@H](O)C2(F)F)c(=O)n1 is in?
Given back: lower range

Asked: Kindly state the category for this molecule: CCC(C)C1NC(=O)C(CCCCN)NC(=O)C(CCCCN)NC(=O)C(CC(C)C)NC(=O)C(CCCCN)NC(=O)C(C(C)CC)NC(=O)C(C(C)C)NC(=O)C(C(C)CC)NC(=O)C(CCCCN)NC(=O)C(CCCCN)NC(=O)C(C)NC(=O)C(CCCCN)NC(=O)C(CC(C)C)NC1=O (configuration not stated)
Given back: middle range

# credit: PubChem BioAssay (NCI)
